# TESTED SYSTEM: cMyc-tagged C-terminal TLR2 (cTLR2) recombinant protein, C-terminal TIR domain of TLR2 (640-784 amino acids) (UniProt Q9QUN7)
# Sequence (Q9QUN7 640-784 limits assumed, form in doubt): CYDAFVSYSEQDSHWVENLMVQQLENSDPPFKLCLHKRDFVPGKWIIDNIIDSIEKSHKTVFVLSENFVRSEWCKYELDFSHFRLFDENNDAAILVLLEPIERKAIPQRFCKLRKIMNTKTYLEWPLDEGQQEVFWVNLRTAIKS
# ASSAY TEXT: SPR, cTLR2 immobilised, peptide as analyte; equilibrium response versus peptide concentration; mTIDM (mutated) peptide
MEASUREMENT TYPE: pKd
One number for each entry, as −log10 of the molar value.

Respond only with pKd recorded for DRQIKIWFQNRRMKWKKPGWHQD [Mutated (m) TIDM peptide]
4.72
